Ref: PubChem BioAssay

method description: changes in parasitized red cell lysis, either direction – P. falciparum Indochina, OD700, 3 h, PSAC antagonist project, primary screen (AID 1156)
applied conditions: P. falciparum-infected erythrocytes, osmotic lysis, higher = more signal, called active from +8 up or from −8 down
The source made the active and inactive calls.
Reported values of z-score for individual entries

The cases that follow already have their z-score on record.
molecule: [N-]=[N+]=NCc1ccccc1[C@H]1OC(c2ccc(OCCCO)cc2)=N[C@@]1(Cc1ccccc1N=[N+]=[N-])C(=O)NCC(O)CO (some centres undefined)
z-score: 1.37 (inactive)
//
molecule: COc1ccc([Si](C)(C)[C@@H]2[C@@H](CC(=O)N3Cc4ccccc4C[C@H]3CO)O[C@]3(C(=O)N(Cc4ccc(N5C(=O)c6cccc7cccc5c67)cc4)c4ccccc43)[C@H]2C)cc1
z-score: -0.149 (inactive)
//
molecule: CCCC1(C(=O)OC)C=C2C(=C(C)C(=O)C2C)CN1 (centres undefined)
z-score: -0.0148 (inactive)

Param item = COCCOC(=O)N1C(=O)[C@@]2(c3cc(C#CCCO)ccc31)[C@H](C(=O)Nc1nc3ccccc3s1)[C@H]1C(=O)O[C@H](c3ccccc3)[C@H](c3ccccc3)N1[C@@H]2c1ccc(O)cc1 ; retrieve measured z-score. 1 (inactive)

---

method description: growth of efflux-deficient E. coli DRC39 – strain DRC39, OD650, 48 h, E. coli filamentation inducers, primary screen (AID 1179);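 note: screen aims at cell division blockers that make cells filament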
applied conditions: E. coli DRC39 delta-acrAB growth, higher = more signal, called active from +8 up or from −8 down
The entries below are paired with their reported z-score.
The response must contain the number and no unit.

compound: N#Cc1ccc(NN2C(C(O)c3ccc(Br)cc3)C=CC3C(=O)N(c4ccccc4)C(=O)C32)cc1 (centres undefined)
z-score: 0.656
--
compound: CC(C)C(CO)N1C(=O)[C@@H]2C3C(=O)OCCC/C=C\[C@H]3OC23C=CCN(c2ccc4ccccc4c2)C(=O)[C@@H]13 (some centres undefined)
z-score: -0.24
--
compound: CCOC(=O)C[C@H]1[C@H](OC(=O)c2cc3ccccc3oc2=O)[C@@H](NC(=O)c2ccccc2)c2cc(OCCCO)ccc2N1C(=O)c1ccccc1
z-score: -0.869
--
compound: CCOC(=O)C[C@H]1[C@H](OC(=O)Cc2ccc3c(c2)OCO3)[C@@H](NC(=O)c2ccc3ccccc3n2)c2cc(OCCCO)ccc2N1C(=O)c1ccccc1
z-score: 0.208

For O=C(NCCN1CCOCC1)[C@@H]1c2ccccc2C(=O)N(C2Cc3ccccc3C2)[C@H]1c1ccc(CO)cc1 , what is its reported z-score? 1.07

Please report the recorded z-score for COc1ccc([Si](C)(C)[C@@H]2[C@@H](CC(=O)N3Cc4ccccc4C[C@H]3CO)O[C@]3(C(=O)N(Cc4ccc(N5C(=O)c6cccc7cccc5c67)cc4)c4ccccc43)[C@H]2C)cc1 . 0.403

Reported z-score for Cc1ccc(S[C@]2(C(=O)O)CC(=O)N(C3CCCCC3)[C@@H]2c2ccc(CO)cc2I)cc1 : what is it? 0.0129

Need z-score, item NC(=O)NCC#Cc1ccc2c(c1)[C@]1(C(=O)N2)[C@H](c2ccccc2OCCO)N2[C@H](c3ccccc3)[C@H](c3ccccc3)OC(=O)[C@H]2[C@@H]1C(=O)NC[C@H](O)c1ccccc1 0.693

Looking for the measured z-score of CS(=O)(=O)CCOC(=O)C1=CC(CCCO)=CC(c2ccc(CN3CCCC3)cc2)N(Cc2sc3ccccc3c2Cl)C=C1C(=O)OCCS(C)(=O)=O (centres undefined) , can you help? 0.309

Which measured z-score value corresponds to CC1CC/C=C\[C@H]2OC34C=CCN(c5ccc(Cl)cc5)C(=O)[C@H]3N(C(C)CO)C(=O)[C@]4(C)C2C(=O)O1 (some centres undefined) ? 1.48

Return reported z-score; argument: CC(C)N1CC=CC23O[C@@H]4C=CCCOC(=O)C4[C@H]2C(=O)N(CCCO)[C@@H]3C1=O (some centres undefined) 0.32

What z-score value was documented for this compound, CS(=O)(=O)CCOC(=O)C1=CC(c2ccc(CO)cc2)=CC(C2CC2)N(Cc2sc3ccccc3c2Cl)C=C1C(=O)OCCS(C)(=O)=O (centres undefined) ? -2.01

Reported z-score for [N-]=[N+]=Nc1ccccc1[C@@H]1OC(c2ccc(OCCCO)cc2)=N[C@]1(Cc1ccccc1)C(=O)O : what is it? 0.921

State the recorded z-score for this entry: CCCCNC(=O)c1ccc(C#CC(C)(C)C)c(OC(C)=O)c1 0.256
